Where do these numbers come from? They come from patent US9938261B2.

- TARGET UNDER TEST: kinase panel containing either 386 or 392 distinct kinases
- METHOD SUMMARY: Kinase selectivity score S10 from competition binding panel
- CONDITION NOTES: 10 μM, panel of 386 or 392 distinct kinases
RECORDED METRIC: Kinase specificity S(10)

Please review the following examples before continuing.
COc1ccc2ncn(Cc3ccc4nc(N[C@@H]5CCCC[C@H]5O)oc4c3)c2c1 :: B (0.01<B≤0.02)
O[C@@H]1CCCC[C@H]1Nc1nc2ccc(Cc3cnc4cc(-n5ccnn5)ccn34)cc2s1 :: A (A≤0.01)
O[C@@H]1CCCC[C@H]1Nc1nc2ccc(Cc3cnc4cc(-n5ccnc5)ccn34)cc2s1 :: B (0.01<B≤0.02)
C=CCOc1ccn2c(Cc3ccc4nc(N[C@@H]5CCCC[C@H]5O)sc4c3)cnc2c1 :: A (A≤0.01)
O[C@@H]1[C@H](O)CCC[C@H]1Nc1nc2ccc(Cn3cnc4cc(-n5cncn5)cnc43)cc2s1 :: A (A≤0.01)
Cc1cc(Br)cc2ncn(Cc3ccc4nc(N[C@@H]5CCCC[C@H]5O)sc4c3)c12 :: A (A≤0.01)

Fill in the blank: the reported Kinase specificity S(10) of `Oc1ccc2c(c1)ncn2Cc1ccc2nc(N[C@@H]3CCCC[C@H]3O)sc2c1` is ____.
A (A≤0.01)

What would you report for `O[C@@H]1CCCC[C@H]1Nc1nc2ccc(Cc3cnc4ccc(N5CCOCC5)nn34)cc2s1` ?
B (0.01<B≤0.02)

What would you report for `CC(=NO)c1ccn2c(Cc3ccc4nc(N[C@@H]5CCCC[C@H]5O)sc4c3)cnc2c1` ?
A (A≤0.01)

###

- TARGET UNDER TEST: PDGFRβ (Homo sapiens, UniProt P09619)
- Construct: made in house
- Sequence (P09619 33-1106): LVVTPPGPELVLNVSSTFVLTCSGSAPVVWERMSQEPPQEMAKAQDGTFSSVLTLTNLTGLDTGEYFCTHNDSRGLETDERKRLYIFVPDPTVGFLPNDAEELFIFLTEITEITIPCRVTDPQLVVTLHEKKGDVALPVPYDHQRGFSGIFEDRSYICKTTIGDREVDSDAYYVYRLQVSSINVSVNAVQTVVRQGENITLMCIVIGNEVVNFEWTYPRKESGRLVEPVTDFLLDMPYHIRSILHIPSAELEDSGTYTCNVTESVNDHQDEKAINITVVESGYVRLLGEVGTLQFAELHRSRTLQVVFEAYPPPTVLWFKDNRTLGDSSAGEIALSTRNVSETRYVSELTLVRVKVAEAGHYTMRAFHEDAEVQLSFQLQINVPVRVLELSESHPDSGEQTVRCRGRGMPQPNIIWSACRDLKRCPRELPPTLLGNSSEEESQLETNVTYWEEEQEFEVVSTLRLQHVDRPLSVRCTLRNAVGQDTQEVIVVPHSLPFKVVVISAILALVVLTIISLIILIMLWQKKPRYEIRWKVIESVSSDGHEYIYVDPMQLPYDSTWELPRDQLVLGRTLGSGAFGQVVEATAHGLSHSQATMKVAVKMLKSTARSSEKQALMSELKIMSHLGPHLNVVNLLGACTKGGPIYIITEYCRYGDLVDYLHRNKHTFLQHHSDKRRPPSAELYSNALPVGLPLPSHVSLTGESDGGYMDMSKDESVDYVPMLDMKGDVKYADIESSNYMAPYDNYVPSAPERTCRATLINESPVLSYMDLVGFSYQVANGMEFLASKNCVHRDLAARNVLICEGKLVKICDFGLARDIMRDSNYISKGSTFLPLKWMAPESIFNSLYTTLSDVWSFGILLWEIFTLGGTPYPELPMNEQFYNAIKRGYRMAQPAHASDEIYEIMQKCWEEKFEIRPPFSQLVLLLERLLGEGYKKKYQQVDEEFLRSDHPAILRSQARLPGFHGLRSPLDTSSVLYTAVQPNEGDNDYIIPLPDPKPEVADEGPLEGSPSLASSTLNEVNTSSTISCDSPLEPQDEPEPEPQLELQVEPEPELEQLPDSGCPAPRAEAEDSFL
- METHOD SUMMARY: Competition binding assay, PDGFRβ Kd
RECORDED METRIC: Kd

COc1cc2ncn(Cc3ccc4nc(N(C)C5CCCCC5)sc4c3)c2cc1OC :: 0.5 to 2 µM
CC(=O)c1cnc2c(c1)ncn2Cc1ccc2nc(N[C@@H]3CCCC[C@H]3O)sc2c1 :: ≤ 0.05 µM
COc1cc2ncn(Cc3ccc4nc(NCc5ccccc5)sc4c3)c2cc1OC :: 0.05 to 0.5 µM
COc1ccccc1Nc1nc2ccc(Cn3cnc4cc(OC)c(OC)cc43)cc2s1 :: 0.05 to 0.5 µM
COc1cc2ncn(Cc3ccc4nc(N[C@@H]5CCCC[C@H]5O)sc4c3)c2cc1-c1cnn(C)c1 :: 0.05 to 0.5 µM

What is its Kd for PDGFRβ (Homo sapiens, UniProt P09619)? Entry: `CS(=O)(=O)c1cnc2c(c1)ncn2Cc1ccc2nc(N[C@@H]3CCCC[C@H]3O)sc2c1`
0.05 to 0.5 µM

What would you report for `COc1cc2ncn(Cc3ccc4nc(Nc5ccccc5O)sc4c3)c2cc1OC` ?
0.05 to 0.5 µM

What would you report for `CSCc1cnc2c(c1)ncn2Cc1ccc2nc(N[C@@H]3CCCC[C@H]3O)sc2c1` ?
≤ 0.05 µM

What would you report for `Cn1nnc(-c2cnc3c(c2)ncn3Cc2ccc3nc(N[C@@H]4CCCC[C@H]4O)sc3c2)n1` ?
0.05 to 0.5 µM

What would you report for `Cn1cc(-c2cnc3c(c2)ncn3Cc2ccc3nc(N[C@@H]4CCCC[C@H]4O)sc3c2)cn1` ?
≤ 0.05 µM
